Ref: patent US10385065B2

# Test system: Neisseria gonorrhoeae ATCC 49226
# Assay Explanation: MIC, N. gonorrhoeae ATCC 49226
# Format: cell-based
# Measurement Parameters: ATCC49226, Table 4, 24 h incubation
Attribute Measured: MIC

{"Molecule": "Cc1nc2c(=O)n(C3CC3)c3c(C)c(-c4ccc(CN)c(F)c4)ccc3c2o1 [Compound 36]", "Attribute Measured": "MIC", "Value": "10 to 100 µg/mL"}
{"Molecule": "Cc1c(-c2cc(F)c(N)cc2F)ccc2c3oc(CN)nc3c(=O)n(C3CC3)c12 [Compound 100]", "Attribute Measured": "MIC", "Value": "< 1 µg/mL"}
{"Molecule": "Cc1nc2c(=O)n(C3CC3)c3c(C)c(-c4ccc(N)nc4)ccc3c2o1 [Compound 23]", "Attribute Measured": "MIC", "Value": "1 to 10 µg/mL"}
{"Molecule": "C[C@H]1COc2c(N3CCN(C)CC3)c(F)cc3c(=O)c(C(=O)O)cn1c23 [Levofloxacin, reference compound]", "Attribute Measured": "MIC", "Value": "< 1 µg/mL"}
{"Molecule": "Cc1nc2c(=O)n3c4c(c(N5CCC(CN)C5)c(F)cc4c2o1)OC[C@@H]3C (some centres unmarked) [Compound 88]", "Attribute Measured": "MIC", "Value": "1 to 10 µg/mL"}
{"Molecule": "Cc1c(-c2cc(F)c(N)cc2F)ccc2c3ocnc3c(=O)n(C3CC3)c12 [Compound 1]", "Attribute Measured": "MIC", "Value": "< 1 µg/mL"}

Input: Could you share what MIC was measured for C[C@H]1COc2c(-c3cc(F)c(N)cc3F)ccc3c4ocnc4c(=O)n1c23 [Compound 93] , tested on Neisseria gonorrhoeae ATCC 49226?
Output: < 1 µg/mL

Input: Repeat for the following molecule: Cc1c(-c2ccc3[nH]ncc3c2)ccc2c3ocnc3c(=O)n(C3CC3)c12 [Compound 39]
Output: < 1 µg/mL

====

# Tested on: Staphylococcus aureus ATCC 29213
# Assay Explanation: MIC, broth microdilution, S. aureus ATCC 29213
# Type: cell-based
# Measurement Parameters: ATCC29213, Table 1, wild type strain, read-out: MIC S. aureus ATCC 29213
Attribute Measured: MIC

Would you please look over these solved cases?
{"Molecule": "NC(=O)c1ccc(-c2cc3c(cc2F)c2ocnc2c(=O)n3C2CC2)cc1 [Compound 58]", "MIC": "1 to 10 mg/L"}
{"Molecule": "Cc1c(-c2cc(F)c(N)cc2F)ccc2c3oc(CO)nc3c(=O)n(C3CC3)c12 [Compound 99]", "MIC": "< 1 mg/L"}
{"Molecule": "Cc1c(-c2cnoc2)ccc2c3ocnc3c(=O)n(C3CC3)c12 [Compound 43]", "MIC": "1 to 10 mg/L"}

For the next question, use this molecule.
Input: Fill in the blank: the reported MIC of CC(=O)c1cc(F)c(-c2cc3c(cc2F)c2oc(C)nc2c(=O)n3C2CC2)cc1F [Compound 77] is ____.
Output: 10 to 100 mg/L

====

# Tested on: Staphylococcus aureus ATCC 29213
# Assay Explanation: MIC, broth microdilution, S. aureus ATCC 29213
# Assay type: cell-based
# Measurement Parameters: ATCC 29213 / MSSA, Table 2, read-out: MIC S. aureus (MSSA) ATCC 29213 CLSI control strain
Each entry below carries its recorded MIC.

Would you please look over these solved cases?
{"Compound": "Cc1c(-c2ccccc2)ccc2c3ocnc3c(=O)n(C3CC3)c12 [Compound 7]", "MIC": "1 to 10 µg/mL"}
{"Compound": "Cc1nc2c(=O)n(C3CC3)c3cc(-c4cc(F)c(N)cc4F)c(F)cc3c2o1 [Compound 79]", "MIC": "< 1 µg/mL"}
{"Compound": "Cc1nc2c(=O)n(C3CC3)c3c(C)c(-c4cc(F)c(C(N)=O)cc4F)ccc3c2o1 [Compound 35]", "MIC": "< 1 µg/mL"}
{"Compound": "Nc1cc(F)c(-c2cc3c(cc2F)c2ocnc2c(=O)n3C2CC2)cc1F [Compound 69]", "MIC": "< 1 µg/mL"}
{"Compound": "Cc1nc2c(=O)n(C3CC3)c3c(C)c(-c4ccc(S(N)(=O)=O)cc4)ccc3c2o1 [Compound 17]", "MIC": "1 to 10 µg/mL"}

Input: Could you share what MIC was measured for Cc1nc2c(=O)n(C3CC3)c3cc(N4CC[C@H](CN)C4)c(F)cc3c2o1 [Compound 52] , tested on Staphylococcus aureus ATCC 29213?
Output: 1 to 10 µg/mL

Input: Repeat for the following compound: Cc1nc2c(=O)n(C3CC3)c3c(C)c(-c4ccc(CN)cc4)ccc3c2o1 [Compound 9]
Output: < 1 µg/mL

Input: Repeat for the following compound: COc1ccc(-c2cc3c(cc2F)c2ocnc2c(=O)n3C2CC2)cc1 [Compound 63]
Output: > 100 µg/mL

====

# Tested on: Staphylococcus aureus ATCC 29213
# Assay Explanation: MIC, broth microdilution, S. aureus ATCC 29213
# Assay type: cell-based
# Measurement Parameters: ATCC 29213 / MSSA, Table 2, read-out: MIC S. aureus (MSSA) ATCC 29213 CLSI control strain
Attribute Measured: MIC

Would you please look over these solved cases?
{"Compound": "Cc1c(-c2ccc(N)cc2)ccc2c3ocnc3c(=O)n(C3CC3)c12", "MIC": "< 1 µg/mL"}
{"Compound": "CC(=O)c1ccc(-c2ccc3c4ocnc4c(=O)n(C4CC4)c3c2C)nc1", "MIC": "10 to 100 µg/mL"}
{"Compound": "Cc1c(-c2cnoc2)ccc2c3ocnc3c(=O)n(C3CC3)c12", "MIC": "1 to 10 µg/mL"}

Input: Fill in the blank: the reported MIC of Cc1nc2c(=O)n(C3CC3)c3c(C)c(-c4ccc(N)c(F)c4)ccc3c2o1 is ____.
Output: < 1 µg/mL

Input: Repeat for the following compound: Cc1nc2c(=O)n3c4c(c(N5CCC(CN)C5)c(F)cc4c2o1)OC[C@@H]3C (stereo partly shown)
Output: < 1 µg/mL

Input: Repeat for the following compound: Cc1nc2c(=O)n(C3CC3)c3c(C)c(-c4ccc(C#N)cc4F)ccc3c2o1
Output: < 1 µg/mL

Input: Repeat for the following compound: Cc1nc2c(=O)n(C3CC3)c3cc(N4CCC(CN)C4)c(F)cc3c2o1 (stereo not shown)
Output: < 1 µg/mL

====

# Tested on: Staphylococcus aureus ATCC 29213
# Assay Explanation: MIC, broth microdilution, S. aureus ATCC 29213
# Type: cell-based
# Measurement Parameters: ATCC 29213 / MSSA, Table 2, read-out: MIC S. aureus (MSSA) ATCC 29213 CLSI control strain
Attribute Measured: MIC

Input: Fill in the blank: the reported MIC of Cc1c(-c2cc(F)c(N)cc2F)ccc2c3oc(CO)nc3c(=O)n(C3CC3)c12 is ____.
Output: < 1 µg/mL

Input: Repeat for the following compound: Cc1nc2c(=O)n(C3CC3)c3c(C)c(-c4cc(F)c(O)cc4F)ccc3c2o1
Output: < 1 µg/mL

Input: Repeat for the following compound: O=c1c2ncoc2c2cc(F)c(-c3ccc(O)cc3)cc2n1C1CC1
Output: < 1 µg/mL

====

Assay system Haemophilus influenzae ATCC 49247; read-out recorded as MIC.

Would you please look over these solved cases?
{"Molecule": "Nc1cc(-c2nc3c(cc2F)c2ocnc2c(=O)n3C2CC2)c(F)cc1F [Compound 85]", "Attribute Measured": "MIC", "Value": "1 to 10 µg/mL"}
{"Molecule": "O=c1c2ncoc2c2cc(F)c(-c3cc(F)c(CO)cc3F)cc2n1C1CC1 [Compound 68]", "Attribute Measured": "MIC", "Value": "< 1 µg/mL"}
{"Molecule": "Cc1nc2c(=O)n(C3CC3)c3nc(-c4ccc5[nH]ncc5c4)c(F)cc3c2o1 [Compound 87]", "Attribute Measured": "MIC", "Value": "10 to 100 µg/mL"}

For the next question, use this molecule.
Input: Fill in the blank: the reported MIC of Cc1c(-c2cc(F)c(N)cc2F)ccc2c3oc(CO)nc3c(=O)n(C3CC3)c12 [Compound 99] is ____.
Output: < 1 µg/mL

====

# System: Staphylococcus aureus ATCC 29213
# Assay Explanation: MIC, broth microdilution, S. aureus ATCC 29213
# Assay type: cell-based
# Measurement Parameters: ATCC29213, Table 1, wild type strain, read-out: MIC S. aureus ATCC 29213
Attribute Measured: MIC

Would you please look over these solved cases?
{"Molecule": "Cc1c(-c2ccc3[nH]cnc3c2)ccc2c3ocnc3c(=O)n(C3CC3)c12 [Compound 15]", "Experimental System": "Staphylococcus aureus ATCC 29213", "MIC": "< 1 µg/mL"}
{"Molecule": "Cc1nc2c(=O)n(C3CC3)c3cc(N4CCC(C)(N)CC4)c(F)cc3c2o1 [Compound 55]", "Experimental System": "Staphylococcus aureus ATCC 29213", "MIC": "1 to 10 µg/mL"}
{"Molecule": "Cc1c(-c2ccc3[nH]nnc3c2)ccc2c3ocnc3c(=O)n(C3CC3)c12 [Compound 44]", "Experimental System": "Staphylococcus aureus ATCC 29213", "MIC": "> 100 µg/mL"}

Input: Fill in the blank: the reported MIC of COc1c(N2CCC(N)C2)c(F)cc2c3ocnc3c(=O)n(C3CC3)c12 (stereo not shown) [Compound 97] is ____.
Output: < 1 µg/mL
